target: EphB3 (receptor of Table 1); experiment: EphB receptor specificity panel (% binding)
// assign 1 if % Binding falls strictly below 7%, else 0 (ties count as 0)

>>> df
                                     binder  label
0  LPHGPVAAAWDA (Panned on EphB4) [LPHGPVAAAWDA peptide (SEQ ID NO:26)]      1
1  GPVERAWRPDLI (Panned on EphB4) [GPVERAWRPDLI peptide (SEQ ID NO:30)]      1
2  TYFDFQAWSIRA (Panned on EphB4) [TYFDFQAWSIRA peptide (SEQ ID NO:22)]      0
3  WHWTIEPFAITS (Panned on EphB2) [WHWTIEPFAITS peptide (SEQ ID NO:8)]      0
4  TTLSQLPKSTWL (Panned on EphB1) [TTLSQLPKSTWL peptide (SEQ ID NO:2)]      1
5  AHTFPYPHPKPH (Panned on EphB1) [AHTFPYPHPKPH peptide (SEQ ID NO:3)]      0
6  SHWPVLPFAHWQ (Panned on EphB2) [SHWPVLPFAHWQ peptide (SEQ ID NO:12)]      0
